FYI, the data here is from the NIST ThermoML archive (doi:10.1021/je200790q).

- experimentSummary: refractive index (Na D-line) (dimensionless)
- runConditions: 293.28 K; 101.33 kPa; Liquid; Standard Abbe refractometry
Record form. Attribute: refractive index. Fill in for each entry.
One number for each entry.

Examples from the recorded data:
Return refractive index for the following molecule: CCn1cc[n+](C)c1.N#CN=C=[N-] [1-ethyl-3-methylimidazolium dicyanamide] 1.51585

Return refractive index for the following molecule: CCn1cc[n+](C)c1.O=S(=O)([O-])C(F)(F)F [1-ethyl-3-methylimidazolium trifluoromethanesulfonate] 1.43432

Return refractive index for the following molecule: CCn1cc[n+](C)c1.CS(=O)(=O)[O-] [1-ethyl-3-methylimidazolium methanesulfonate] 1.49682

Return refractive index for the following molecule: CCn1cc[n+](C)c1.CO[PH](=O)[O-] [1-ethyl-3-methylimidazolium methyl phosphonate] 1.4939

Next:
Return refractive index for the following molecule: CC(=O)[O-].CCn1cc[n+](C)c1 [1-ethyl-3-methylimidazolium acetate] 1.50233

###

Record form. Attribute: viscosity. Fill in for each entry.
- runConditions: 328.15 K; 101.33 kPa; Liquid
± gives the expanded uncertainty stated by the source.
Answer format: number, then unit.

Return viscosity for the following compound: CC(=O)[O-].CCn1cc[n+](C)c1 [1-ethyl-3-methylimidazolium acetate] 31.87 ± 0.4 mPa·s

Return viscosity for the following compound: CCn1cc[n+](C)c1.CS(=O)(=O)[O-] [1-ethyl-3-methylimidazolium methanesulfonate] 38.2 ± 0.47 mPa·s

Return viscosity for the following compound: CCn1cc[n+](C)c1.N#CN=C=[N-] [1-ethyl-3-methylimidazolium dicyanamide] 7.673 ± 0.087 mPa·s

I need viscosity for every entry listed below, if you could help.
1. CCn1cc[n+](C)c1.Cc1ccc(S(=O)(=O)[O-])cc1 [1-ethyl-3-methylimidazolium 4-methylbenzenesulfonate]
2. CCn1cc[n+](C)c1.O=S(=O)([O-])C(F)(F)F [1-ethyl-3-methylimidazolium trifluoromethanesulfonate]
3. CCn1cc[n+](C)c1.COP(=O)([O-])OC [1-ethyl-3-methylimidazolium dimethylphosphate]

["173.69 ± 8 mPa·s", "17.21 ± 0.19 mPa·s", "55.46 ± 0.58 mPa·s"]

I need viscosity for every entry listed below, if you could help.
1. CCn1cc[n+](C)c1.CO[PH](=O)[O-] [1-ethyl-3-methylimidazolium methyl phosphonate]
2. CCn1cc[n+](C)c1.N#C[S-] [1-ethyl-3-methylimidazolium thiocyanate]

1: 47.38 ± 0.59 mPa·s; 2: 10.64 ± 0.12 mPa·s

###

- runConditions: 358.15 K; 101.33 kPa; Liquid; Vibrating tube method
reportedEndpoint: mass density (kg/m3)
Numbers only, in kg/m3.

Examples from the recorded data:
Return mass density for the following compound: CC(=O)[O-].CCn1cc[n+](C)c1 [1-ethyl-3-methylimidazolium acetate] 1063.4

Return mass density for the following compound: CCn1cc[n+](C)c1.O=S(=O)([O-])C(F)(F)F [1-ethyl-3-methylimidazolium trifluoromethanesulfonate] 1336.4

Return mass density for the following compound: CCn1cc[n+](C)c1.COP(=O)([O-])OC [1-ethyl-3-methylimidazolium dimethylphosphate] 1177.8

Next:
Return mass density for the following compound: CCn1cc[n+](C)c1.N#C[S-] [1-ethyl-3-methylimidazolium thiocyanate] 1081.5

###

- runConditions: 333.15 K; 101.33 kPa; Liquid; Vibrating tube method
Record form. Attribute: mass density. Fill in for each entry.
Numbers only, in kg/m3.

Examples from the recorded data:
Return mass density for the following compound: CCn1cc[n+](C)c1.N#CN=C=[N-] [1-ethyl-3-methylimidazolium dicyanamide] 1081

Return mass density for the following compound: CC(=O)[O-].CCn1cc[n+](C)c1 [1-ethyl-3-methylimidazolium acetate] 1078

Return mass density for the following compound: CCn1cc[n+](C)c1.CO[PH](=O)[O-] [1-ethyl-3-methylimidazolium methyl phosphonate] 1186.1

I need mass density for every entry listed below, if you could help.
1. CCn1cc[n+](C)c1.N#C[S-] [1-ethyl-3-methylimidazolium thiocyanate]
2. CCn1cc[n+](C)c1.Cc1ccc(S(=O)(=O)[O-])cc1 [1-ethyl-3-methylimidazolium 4-methylbenzenesulfonate]
3. CCn1cc[n+](C)c1.CS(=O)(=O)[O-] [1-ethyl-3-methylimidazolium methanesulfonate]
4. CCn1cc[n+](C)c1.COP(=O)([O-])OC [1-ethyl-3-methylimidazolium dimethylphosphate]

[1095.9, 1203.7, 1218.9, 1193.9]

Return mass density for the following compound: CCn1cc[n+](C)c1.O=S(=O)([O-])C(F)(F)F [1-ethyl-3-methylimidazolium trifluoromethanesulfonate] 1356.5
